Listing: one-hybrid fitness for binding parS DNA of selected variants
B1: Caulobacter ParB omega fusion; a variant is named by its letters at X, in order, B8GW30 (parent)
chain: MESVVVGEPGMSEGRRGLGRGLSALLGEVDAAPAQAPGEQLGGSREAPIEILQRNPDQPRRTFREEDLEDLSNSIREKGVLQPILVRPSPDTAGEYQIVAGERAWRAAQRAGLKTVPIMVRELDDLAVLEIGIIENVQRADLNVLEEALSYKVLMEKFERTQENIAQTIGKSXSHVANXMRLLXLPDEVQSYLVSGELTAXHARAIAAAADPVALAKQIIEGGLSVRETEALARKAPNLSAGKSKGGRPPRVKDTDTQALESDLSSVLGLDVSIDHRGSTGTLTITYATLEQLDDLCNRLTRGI

- Variants of: B1
- test details: one-hybrid fitness for binding parS DNA (scaled: cognate 1, non-cognate 0); higher = stronger binding
- experimental conditions: with parS DNA site
Over roughly 81,000 sequences, “one-hybrid fitness for binding parS DNA” has its median near -0.17; the highest 2% begin near 0.51. The sample as a whole holds a higher share of the highest values than the screen did.
Enter a number only.

{"mutation descriptor": "RNYN", "one-hybrid fitness for binding parS DNA": 0.235}

# input variant: "RNPC" ; wanted: its one-hybrid fitness for binding parS DNA
# output 0.358

# input variant: "RYKG" ; wanted: its one-hybrid fitness for binding parS DNA
# output 0.91

# input variant: "RCHG" ; wanted: its one-hybrid fitness for binding parS DNA
# output 0.994

Data provenance: a collection of fitness landscapes (doi:10.1016/j.celrep.2020.107928)
